Below, each entry is listed alongside its reported IC50.
Target: V1 receptor (Rattus norvegicus, UniProt P30560)
Sequence (P30560 whole entry): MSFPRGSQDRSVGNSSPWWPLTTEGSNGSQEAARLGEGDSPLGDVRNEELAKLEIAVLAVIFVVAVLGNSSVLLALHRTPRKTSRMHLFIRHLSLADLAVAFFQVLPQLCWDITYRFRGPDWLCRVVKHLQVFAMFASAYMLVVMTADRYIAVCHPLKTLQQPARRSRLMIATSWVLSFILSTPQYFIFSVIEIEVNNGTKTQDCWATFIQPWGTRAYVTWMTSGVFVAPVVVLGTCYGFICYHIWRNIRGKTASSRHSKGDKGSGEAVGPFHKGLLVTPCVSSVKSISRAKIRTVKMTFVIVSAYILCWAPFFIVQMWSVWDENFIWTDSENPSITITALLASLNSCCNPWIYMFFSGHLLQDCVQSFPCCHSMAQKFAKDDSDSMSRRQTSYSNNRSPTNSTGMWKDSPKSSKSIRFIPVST
Assay: biochemical
Assay type: binding

compound	target entity	reading unit	IC50
O=C(c1ccc(OCCCCC(O)CN2CCN(c3ccccc3)CC2)cc1)N1CCC(N2C(=O)CCc3ccccc32)CC1 (centres unmarked)	V1 receptor (Rattus norvegicus, UniProt P30560)	nM	120
Nc1ccc(C(=O)NCCCOc2ccc(C(=O)N3CCC(N4C(=O)CCc5ccccc54)CC3)cc2)cc1	V1 receptor (Rattus norvegicus, UniProt P30560)	nM	120
CN(C)CCN(CCCCCOc1ccc(C(=O)N2CCC(N3C(=O)CCc4ccccc43)CC2)cc1)Cc1ccccc1	V1 receptor (Rattus norvegicus, UniProt P30560)	nM	34
NC(=O)CCCCCOc1ccc(C(=O)N2CCC(N3C(=O)CCc4ccccc43)CC2)cc1	V1 receptor (Rattus norvegicus, UniProt P30560)	nM	230
COc1ccc(C(=O)N2CCC(N3C(=O)CCc4ccccc43)CC2)c(OCCCOC(N)=O)c1	V1 receptor (Rattus norvegicus, UniProt P30560)	nM	270

* * *

Below, each entry is listed alongside its reported IC50.
Biological target: V1 receptor (Rattus norvegicus, UniProt P30560)
Experiment: biochemical
Assay type: binding
recorded metric: IC50 (nM)

smiles string	recorded metric	reading unit	recorded number
O=C(c1ccc2ccccc2c1)N1CCC(N2C(=O)CCc3ccccc32)CC1	IC50	nM	760
COc1ccc(C(=O)N2CCC(N3C(=O)CCc4ccccc43)CC2)c(OC(C)=O)c1	IC50	nM	300
CCOC(=O)CNC(=O)CCCCCOc1ccc(C(=O)N2CCC(N3C(=O)CCc4ccccc43)CC2)cc1	IC50	nM	280

* * *

Biological target: V1 receptor (Rattus norvegicus)
Assay: biochemical
Assay type: binding
recorded metric: IC50 (nM)

molecule	recorded number
CS(=O)(=O)N1CCN(CCCCOc2ccc(C(=O)N3CCC(N4C(=O)CCc5ccccc54)CC3)cc2)CC1	98
CCN(CC)CC(O)COCCCOc1ccc(C(=O)N2CCC(N3C(=O)CCc4ccccc43)CC2)cc1 (stereo not drawn)	61
CC(=O)NCC(O)CCCCOc1ccc(C(=O)N2CCC(N3C(=O)CCc4ccccc43)CC2)cc1 (stereo not drawn)	130

* * *

Molecular target: V1 receptor (Rattus norvegicus)
Assay: biochemical
Format: binding
recorded metric: IC50 (nM)

compound	reading unit	recorded number
O=C(c1ccc(OCCCCCS(=O)(=O)c2ccccn2)cc1)N1CCC(N2C(=O)CCc3ccccc32)CC1	nM	100
CC(=O)N1CCN(CCCOc2ccc(C(=O)N3CCC(N4C(=O)CCc5ccccc54)CC3)cc2)CC1	nM	160
CS(=O)(=O)NCCCCOc1ccc(C(=O)N2CCC(N3C(=O)CCc4ccccc43)CC2)cc1	nM	160
NC(=O)CNC(=O)CCCCCOc1ccc(C(=O)N2CCC(N3C(=O)CCc4ccccc43)CC2)cc1	nM	160
CSCCC(NC(C)=O)C(=O)NCCCOc1ccc(C(=O)N2CCC(N3C(=O)CCc4ccccc43)CC2)cc1 (centres unmarked)	nM	70

* * *

Target: V1 receptor (Rattus norvegicus)
Assay: biochemical
Type: binding
pIC50: −log10 of the molar value.
1 means recorded pIC50 is 7 or above; -1 means it is below 7.

molecule	discrete label
CCSc1ccc(C(=O)N2CCC(N3C(=O)CCc4ccccc43)CC2)cc1	-1
O=C(OCCCOc1ccc(C(=O)N2CCC(N3C(=O)CCc4ccccc43)CC2)cc1)c1ccccc1	-1
CNC(=O)NCCCOc1ccc(C(=O)N2CCC(N3C(=O)CCc4ccccc43)CC2)cc1	-1
C=CCN(C)CCCCCOc1ccc(C(=O)N2CCC(N3C(=O)CCc4ccccc43)CC2)cc1	1
O=C(c1ccc(OCCCCCS(=O)(=O)c2ncccn2)cc1)N1CCC(N2C(=O)CCc3ccccc32)CC1	1
O=C(CCl)NCCCCOc1ccc(C(=O)N2CCC(N3C(=O)CCc4ccccc43)CC2)cc1	-1
CC[N+](C)(CC)CC(CCCCOc1ccc(C(=O)N2CCC(N3C(=O)CCc4ccccc43)CC2)cc1)OC (stereo not shown)	1
COc1ccc(C(=O)N2CCC(N3C(=O)CCc4ccccc43)CC2)c(OCCOC(C)=O)c1	-1
COc1cc(Cl)ccc1C(=O)N1CCC(N2C(=O)CCc3ccccc32)CC1	-1
COC(=O)NCCCCOc1ccc(C(=O)N2CCC(N3C(=O)CCc4ccccc43)CC2)cc1	-1
NCC(O)CCCCOc1ccc(C(=O)N2CCC(N3C(=O)CCc4ccccc43)CC2)cc1 (stereo not shown)	-1
NC(=O)CCCCCCCOc1ccc(C(=O)N2CCC(N3C(=O)CCc4ccccc43)CC2)cc1	-1
CCOc1cc(OC)ccc1C(=O)N1CCC(N2C(=O)CCc3ccccc32)CC1	-1
COc1ccc(C(=O)N2CCC(N3C(=O)CCc4ccccc43)CC2)c(OCCCO)c1	-1
O=C(c1ccc(OCCCCCCO)cc1)N1CCC(N2C(=O)CCc3ccccc32)CC1	-1
O=C(N[C@@H](CO)C(=O)NCCCOc1ccc(C(=O)N2CCC(N3C(=O)CCc4ccccc43)CC2)cc1)OCc1ccccc1	-1
COC(=O)[C@H](CO)NC(=O)CCCOc1ccc(C(=O)N2CCC(N3C(=O)CCc4ccccc43)CC2)cc1	-1
COc1cc(N(C)C)ccc1C(=O)N1CCC(N2C(=O)CCc3ccccc32)CC1	-1
CN(CCO)CC(O)CCCCOc1ccc(C(=O)N2CCC(N3C(=O)CCc4ccccc43)CC2)cc1 (stereo not shown)	1
